// provenance: patent US20250059141A1

Consider the following compounds and their measured pEC50 readings.
- Target of assay: hTLR8 (human Toll-like receptor 8) (Homo sapiens, UniProt Q9NR97)
- Construct: host or cells: HEK-Blue hTLR8 (HEK293-derived reporter cells)
- Sequence (Q9NR97 27-1041): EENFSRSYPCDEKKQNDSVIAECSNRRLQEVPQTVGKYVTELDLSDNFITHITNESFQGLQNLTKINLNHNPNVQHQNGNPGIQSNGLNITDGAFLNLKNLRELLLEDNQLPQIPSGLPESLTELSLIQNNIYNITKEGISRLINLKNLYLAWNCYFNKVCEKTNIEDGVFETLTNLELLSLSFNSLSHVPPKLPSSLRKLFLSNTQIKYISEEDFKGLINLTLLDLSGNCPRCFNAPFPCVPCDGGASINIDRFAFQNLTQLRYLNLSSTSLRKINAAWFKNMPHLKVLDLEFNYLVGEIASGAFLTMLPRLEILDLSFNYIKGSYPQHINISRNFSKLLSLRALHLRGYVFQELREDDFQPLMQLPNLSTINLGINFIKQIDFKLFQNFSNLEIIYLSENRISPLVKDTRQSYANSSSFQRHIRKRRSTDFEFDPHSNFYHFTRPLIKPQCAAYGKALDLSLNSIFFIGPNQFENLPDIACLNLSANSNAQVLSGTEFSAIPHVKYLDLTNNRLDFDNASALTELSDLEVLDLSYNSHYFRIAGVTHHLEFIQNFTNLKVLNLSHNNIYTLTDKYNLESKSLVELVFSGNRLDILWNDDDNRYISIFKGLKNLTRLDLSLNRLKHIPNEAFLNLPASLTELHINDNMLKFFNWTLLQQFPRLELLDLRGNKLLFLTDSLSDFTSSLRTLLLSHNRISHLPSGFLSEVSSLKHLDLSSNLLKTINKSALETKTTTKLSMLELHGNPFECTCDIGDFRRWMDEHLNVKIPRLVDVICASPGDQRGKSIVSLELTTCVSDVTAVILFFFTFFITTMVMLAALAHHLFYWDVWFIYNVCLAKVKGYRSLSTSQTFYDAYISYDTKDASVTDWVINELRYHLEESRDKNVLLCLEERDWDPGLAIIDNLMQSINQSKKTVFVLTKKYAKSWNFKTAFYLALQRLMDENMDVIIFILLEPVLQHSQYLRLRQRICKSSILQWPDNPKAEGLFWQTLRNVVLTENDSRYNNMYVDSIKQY
- Assay explanation: HEK-Blue hTLR8 reporter assay (QUANTI-Blue, OD650)
- Type: cell-based
- Stated conditions: HEK-Blue hTLR8 cells, 24 h; class symbols; read-out: Reporter assay TLR8 EC50
pEC50: −log10 of the molar value.

Consider the worked cases shown below.
Measured pEC50 (hTLR8 (human Toll-like receptor 8) (Homo sapiens, UniProt Q9NR97)), entry `CCCN(OCc1ccc(N)cc1)C(=O)C1=Cc2ccc(-c3cncc(S(=O)(=O)NCCO)c3)cc2N=C(N)C1` : ≥ 8.00

Measured pEC50 (hTLR8 (human Toll-like receptor 8) (Homo sapiens, UniProt Q9NR97)), entry `CCCN(OCc1ccc(N)cc1)C(=O)C1=Cc2ccc(C(=O)N3CC(Oc4ccccc4)C3)cc2N=C(N)C1` : ≥ 8.00

Measured pEC50 (hTLR8 (human Toll-like receptor 8) (Homo sapiens, UniProt Q9NR97)), entry CCCN(OCc1ccc(N)cc1)C(=O)C1=Cc2ccc(C(=O)N3CCOC(CO)C3)cc2N=C(N)C1 (stereo not shown) : 7.00 to 8.00

---
Measured pEC50 (hTLR8 (human Toll-like receptor 8) (Homo sapiens, UniProt Q9NR97)), entry `CCCN(OCc1ccc(N)cc1)C(=O)C1=Cc2ccc(C(=O)NC3COC3)cc2N=C(N)C1` : 7.00 to 8.00

Measured pEC50 (hTLR8 (human Toll-like receptor 8) (Homo sapiens, UniProt Q9NR97)), entry `CCCN(OCc1ccc(N)cc1)C(=O)C1=Cc2ccc(-c3cccc(S(=O)(=O)N4CCNCC4)c3)cc2N=C(N)C1` : ≥ 8.00

Measured pEC50 (hTLR8 (human Toll-like receptor 8) (Homo sapiens, UniProt Q9NR97)), entry `CCCN(OCc1ccc(N)cc1)C(=O)C1=Cc2ccc(C(=O)N[C@@H](C)c3ccccc3)cc2N=C(N)C1` : ≥ 8.00

Measured pEC50 (hTLR8 (human Toll-like receptor 8) (Homo sapiens, UniProt Q9NR97)), entry `CCCN(OCc1ccc(N)cc1)C(=O)C1=Cc2ccc(-c3cncc(S(=O)(=O)N4CC[C@H](O)C4)c3)cc2N=C(N)C1` : ≥ 8.00
